Value source: ChEMBL document CHEMBL1128673

ID50 values by entry
- subject-of-test: Tyrosine-protein phosphatase non-receptor type 11 (Homo sapiens)
- Sequence (whole entry): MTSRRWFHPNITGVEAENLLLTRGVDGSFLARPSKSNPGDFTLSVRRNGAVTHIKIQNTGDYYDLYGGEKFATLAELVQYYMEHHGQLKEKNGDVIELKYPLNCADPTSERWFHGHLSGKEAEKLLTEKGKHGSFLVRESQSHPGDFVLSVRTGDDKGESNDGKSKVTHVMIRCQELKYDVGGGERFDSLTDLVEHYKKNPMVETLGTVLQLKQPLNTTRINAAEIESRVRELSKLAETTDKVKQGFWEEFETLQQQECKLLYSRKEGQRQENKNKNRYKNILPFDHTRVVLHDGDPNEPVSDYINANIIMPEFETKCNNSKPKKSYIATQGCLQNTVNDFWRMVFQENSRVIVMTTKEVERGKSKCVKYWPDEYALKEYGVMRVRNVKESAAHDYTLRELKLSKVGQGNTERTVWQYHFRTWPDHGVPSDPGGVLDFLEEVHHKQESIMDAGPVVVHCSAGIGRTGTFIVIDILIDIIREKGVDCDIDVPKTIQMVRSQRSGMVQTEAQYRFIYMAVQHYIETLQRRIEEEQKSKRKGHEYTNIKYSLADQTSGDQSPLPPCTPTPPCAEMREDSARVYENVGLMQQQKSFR
- assay-overview: In vitro binding to SH-PTP2-N (SHP-2) SH2 domain
attribute-measured: ID50

{"compound": "CC(=O)N[C@H](C(N)=O)[C@@H]1CCc2cc(OP(=O)(O)O)ccc21 (racemic)", "subject-of-test": "Tyrosine-protein phosphatase non-receptor type 11 (Homo sapiens)", "attribute-measured": "ID50", "result-value": "> 3000 µM"}
{"compound": "N[C@@H](Cc1ccc(OP(=O)(O)O)cc1)C(=O)O", "subject-of-test": "Tyrosine-protein phosphatase non-receptor type 11 (Homo sapiens)", "attribute-measured": "ID50", "result-value": "> 33000 µM"}
{"compound": "CC(=O)N[C@@H](Cc1ccc(OP(=O)(O)O)cc1)C(N)=O", "subject-of-test": "Tyrosine-protein phosphatase non-receptor type 11 (Homo sapiens)", "attribute-measured": "ID50", "result-value": "> 3000 µM"}
{"compound": "CC(=O)N1CC2Cc3cc(O)ccc3C(C)(C2)C1 (racemic)", "subject-of-test": "Tyrosine-protein phosphatase non-receptor type 11 (Homo sapiens)", "attribute-measured": "ID50", "result-value": "> 3000 µM"}
{"compound": "CC(=O)N1CC2Cc3cc(OP(=O)(O)O)ccc3C(C)(C2)C1 (racemic)", "subject-of-test": "Tyrosine-protein phosphatase non-receptor type 11 (Homo sapiens)", "attribute-measured": "ID50", "result-value": "> 3000 µM"}
{"compound": "CC(=O)N[C@H](C(N)=O)[C@H]1CCc2cc(OP(=O)(O)O)ccc21 (racemic)", "subject-of-test": "Tyrosine-protein phosphatase non-receptor type 11 (Homo sapiens)", "attribute-measured": "ID50", "result-value": "> 3000 µM"}

* * *

- assay-overview: In vitro binding to Phospholipase C-gamma SH2 domain
ID50 values by entry
attribute-measured: ID50

{"compound": "N[C@@H](Cc1ccc(OP(=O)(O)O)cc1)C(=O)O", "attribute-measured": "ID50", "result-value": "2.3 mM"}
{"compound": "CC(=O)N[C@H](C(N)=O)[C@H]1CCc2cc(OP(=O)(O)O)ccc21 (racemic)", "attribute-measured": "ID50", "result-value": "> 3 mM"}
{"compound": "CC(=O)N[C@@H](Cc1ccc(OP(=O)(O)O)cc1)C(N)=O", "attribute-measured": "ID50", "result-value": "0.4 mM"}
{"compound": "CC(=O)N1CC2Cc3cc(O)ccc3C(C)(C2)C1 (racemic)", "attribute-measured": "ID50", "result-value": "> 6 mM"}
{"compound": "CC(=O)N1CC2Cc3cc(OP(=O)(O)O)ccc3C(C)(C2)C1 (racemic)", "attribute-measured": "ID50", "result-value": "> 3 mM"}
{"compound": "CC(=O)N[C@H](C(N)=O)[C@@H]1CCc2cc(OP(=O)(O)O)ccc21 (racemic)", "attribute-measured": "ID50", "result-value": "> 3 mM"}
